Test system: Puccinia recondite f. sp. tritici
experimentalDetails: Test D: preventive spray on wheat seedlings, Puccinia recondite f. sp. tritici (wheat leaf rust), visual disease rating
Format: in vivo
statedConditions: 100 = 100% disease control, 0 = no control, unmarked values
quantityMeasured: Test D disease control rating (%)
Give just the numeric value; % need not be written.

Example compounds with recorded Test D disease control rating:
INSERT INTO results (entrysmiles, observedresult) VALUES
  ('Cn1cc(C(=O)Nc2ccccc2-c2cnc(-n3ccc(C(F)(F)F)n3)c(C#N)c2)c(C(F)F)n1', 100),
  ('O=C(Nc1ccccc1-c1cnc(-n2ccc(C(F)F)n2)c(F)c1)c1ncccc1C(F)(F)F', 100),
  ('N#Cc1cc(-c2ccccc2NC(=O)c2ncccc2C(F)(F)F)cnc1-n1ccc(C(F)(F)F)n1', 100);

Read the next record carefully.
**Query** Consider the compound `O=C(Nc1ccccc1-c1ccc(-n2cc(Cl)cn2)nc1)c1ncccc1Cl` and give its measured Test D disease control rating.
**Result** 90
